Cited source for all entries: patent US4994376A

System: Campylobacter sputorum
Format: biochemical
Conditions: strain Ba1-21; β-naphthylamine liberated after 60 minutes, 37° C.
Peptide text beside a SMILES is read from it. * marks the point of attachment. βNA = c1ccc2cc(N*)ccc2c1
parameter: Aminopeptidase activity (nmol)

NC(=O)[C@@H](N)CCC(=O)O [α-Glu, α -glutamine] :: 1
CC(C)C[C@H](NC(=O)[C@@H]1CCCN1C(=O)CN)C(=O)Nc1ccc2ccccc2c1 [Gly-Pro-Leu] (H-Gly-Pro-Leu-βNA) :: 2
CSCCC(N)C(=O)Nc1ccc2ccccc2c1 (racemic) :: 0
CC(C)C[C@H](N)C(=O)NCC(=O)O [Leu-Gly, Leucyl-glycine] (H-Leu-Gly-OH) :: 0
C[C@H](N)C(=O)N[C@@H](C)C(=O)N[C@@H](Cc1ccccc1)C(=O)Nc1ccc2ccccc2c1 [Ala-Ala-Phe] (H-Ala-Ala-Phe-βNA) :: 0
Cl.N=C(N)NCCC[C@H](NC(=O)CNC(=O)CNC(=O)OCc1ccccc1)C(=O)Nc1ccc2ccccc2c1 [N-CBz-Gly-Gly-Arg] :: 0

---

Test system: Bacteroides gingivalis
Assay type: biochemical
Conditions: strain 11-1-2; β-naphthylamine liberated after 60 minutes, 37° C.
Peptide text beside a SMILES is read from it. * marks the point of attachment. βNA = c1ccc2cc(N*)ccc2c1
parameter: Aminopeptidase activity (nmol)

CSCCC(N)C(=O)Nc1ccc2ccccc2c1 (racemic) :: 0
CC(C)C[C@H](NC(=O)[C@@H]1CCCN1C(=O)CN)C(=O)Nc1ccc2ccccc2c1 [Gly-Pro-Leu] (H-Gly-Pro-Leu-βNA) :: 2
NC(=O)[C@@H](N)CCC(=O)O :: 0
Cl.N=C(N)NCCC[C@H](NC(=O)CNC(=O)CNC(=O)OCc1ccccc1)C(=O)Nc1ccc2ccccc2c1 :: 92
CC(C)C[C@H](N)C(=O)NCC(=O)O [Leu-Gly, Leucyl-glycine] (H-Leu-Gly-OH) :: 47
C[C@H](N)C(=O)N[C@@H](C)C(=O)N[C@@H](Cc1ccccc1)C(=O)Nc1ccc2ccccc2c1 [Ala-Ala-Phe] (H-Ala-Ala-Phe-βNA) :: 0

---

Test system: C. sputigena
Assay: Aminopeptidase activity on β-naphthylamide substrates
Assay type: biochemical
Details: strain ATCC 33123; β-naphthylamine liberated after 60 minutes, 37° C.
Peptide text beside a SMILES is read from it. * marks the point of attachment. βNA = c1ccc2cc(N*)ccc2c1
Record Fulfilled whenever Aminopeptidase activity is at 20 nmol or higher; record Not fulfilled when lower.

N=C(N)NCCC[C@H](NC(=O)CN)C(=O)O [Gly-Arg, Glycyl-arginine] (H-Gly-Arg-OH) :: Not fulfilled
N=C(N)NCCC[C@H](NC(=O)[C@@H](N)CCCNC(=N)N)C(=O)O [Arg-Arg, Arginyl-arginine] (H-Arg-Arg-OH) :: Not fulfilled
Cl.N=C(N)NCCC[C@H](NC(=O)CNC(=O)CNC(=O)OCc1ccccc1)C(=O)Nc1ccc2ccccc2c1 :: Not fulfilled
CC(C)C[C@H](NC(=O)[C@@H]1CCCN1C(=O)CN)C(=O)Nc1ccc2ccccc2c1 [Gly-Pro-Leu] (H-Gly-Pro-Leu-βNA) :: Fulfilled
NC(=O)[C@@H](N)CCC(=O)O :: Not fulfilled
CSCCC(N)C(=O)Nc1ccc2ccccc2c1 (racemic) :: Fulfilled
C[C@H](N)C(=O)N[C@@H](C)C(=O)N[C@@H](Cc1ccccc1)C(=O)Nc1ccc2ccccc2c1 [Ala-Ala-Phe] (H-Ala-Ala-Phe-βNA) :: Fulfilled

---

System: Streptococcus mitis
Assay type: biochemical
Settings: strain ATCC 15909; β-naphthylamine liberated after 60 minutes, 37° C.
Peptide text beside a SMILES is read from it. * marks the point of attachment. βNA = c1ccc2cc(N*)ccc2c1
# Aminopeptidase activity listing for each entry below
parameter: Aminopeptidase activity (nmol)

NC(=O)[C@@H](N)CCC(=O)O :: 0
CC(C)C[C@H](NC(=O)[C@@H]1CCCN1C(=O)CN)C(=O)Nc1ccc2ccccc2c1 [Gly-Pro-Leu] (H-Gly-Pro-Leu-βNA) :: 7
C[C@H](N)C(=O)N[C@@H](C)C(=O)N[C@@H](Cc1ccccc1)C(=O)Nc1ccc2ccccc2c1 [Ala-Ala-Phe] (H-Ala-Ala-Phe-βNA) :: 1
Cl.N=C(N)NCCC[C@H](NC(=O)CNC(=O)CNC(=O)OCc1ccccc1)C(=O)Nc1ccc2ccccc2c1 :: 0
CSCCC(N)C(=O)Nc1ccc2ccccc2c1 (racemic) :: 12
CC(C)C[C@H](N)C(=O)NCC(=O)O [Leu-Gly, Leucyl-glycine] (H-Leu-Gly-OH) :: 0

---

Tested on: Streptococcus mitis
Assay type: biochemical
Conditions: strain ATCC 15912; β-naphthylamine liberated after 60 minutes, 37° C.
Peptide text beside a SMILES is read from it. * marks the point of attachment. βNA = c1ccc2cc(N*)ccc2c1
parameter: Aminopeptidase activity (nmol)

CC(C)C[C@H](NC(=O)[C@@H]1CCCN1C(=O)CN)C(=O)Nc1ccc2ccccc2c1 [Gly-Pro-Leu] (H-Gly-Pro-Leu-βNA) :: 11
NC(=O)[C@@H](N)CCC(=O)O :: 0
CC(C)C[C@H](N)C(=O)NCC(=O)O [Leu-Gly, Leucyl-glycine] (H-Leu-Gly-OH) :: 0
C[C@H](N)C(=O)N[C@@H](C)C(=O)N[C@@H](Cc1ccccc1)C(=O)Nc1ccc2ccccc2c1 [Ala-Ala-Phe] (H-Ala-Ala-Phe-βNA) :: 0
CSCCC(N)C(=O)Nc1ccc2ccccc2c1 (racemic) :: 17
Cl.N=C(N)NCCC[C@H](NC(=O)CNC(=O)CNC(=O)OCc1ccccc1)C(=O)Nc1ccc2ccccc2c1 :: 0

---

# Aminopeptidase activity listing for each entry below
Test system: Lactobacillus casei
Assay: Aminopeptidase activity on β-naphthylamide substrates
Assay type: biochemical
Conditions: strain ATCC 11582; β-naphthylamine liberated after 60 minutes, 37° C.
Peptide text beside a SMILES is read from it. * marks the point of attachment. βNA = c1ccc2cc(N*)ccc2c1
parameter: Aminopeptidase activity (nmol)

C[C@H](N)C(=O)N[C@@H](C)C(=O)N[C@@H](Cc1ccccc1)C(=O)Nc1ccc2ccccc2c1 [Ala-Ala-Phe] (H-Ala-Ala-Phe-βNA) :: 3
CSCCC(N)C(=O)Nc1ccc2ccccc2c1 (racemic) :: 9
CC(C)C[C@H](NC(=O)[C@@H]1CCCN1C(=O)CN)C(=O)Nc1ccc2ccccc2c1 [Gly-Pro-Leu] (H-Gly-Pro-Leu-βNA) :: 0
N=C(N)NCCC[C@H](NC(=O)CN)C(=O)O [Gly-Arg, Glycyl-arginine] (H-Gly-Arg-OH) :: 1
N=C(N)NCCC[C@H](NC(=O)[C@@H](N)CCCNC(=N)N)C(=O)O [Arg-Arg, Arginyl-arginine] (H-Arg-Arg-OH) :: 0
NC(=O)[C@@H](N)CCC(=O)O :: 3
CC(C)C[C@H](N)C(=O)NCC(=O)O [Leu-Gly, Leucyl-glycine] (H-Leu-Gly-OH) :: 1
Cl.N=C(N)NCCC[C@H](NC(=O)CNC(=O)CNC(=O)OCc1ccccc1)C(=O)Nc1ccc2ccccc2c1 :: 0

---

Tested on: C. ochracea
Format: biochemical
Peptide text beside a SMILES is read from it.
parameter: Aminopeptidase activity

N=C(N)NCCC[C@H](NC(=O)[C@@H](N)CCCNC(=N)N)C(=O)O [Arg-Arg, Arginyl-arginine] (H-Arg-Arg-OH) :: 71
NCC(=O)N1CCC[C@H]1C(=O)O [Gly-Pro, Glycyl-proline] (H-Gly-Pro-OH) :: 11
NCCCC[C@H](N)C(=O)N1CCC[C@H]1C(=O)O [Lys-Pro, Lysyl-proline] (H-Lys-Pro-OH) :: 108
N=C(N)NCCC[C@H](NC(=O)CN)C(=O)O [Gly-Arg, Glycyl-arginine] (H-Gly-Arg-OH) :: 11
C[C@H](NC(=O)[C@@H](N)CCCCN)C(=O)O [Lys-Ala, Lysyl-alanine] (H-Lys-Ala-OH) :: 50

---

System: B. melaninogenicus
Assay: Aminopeptidase activity on β-naphthylamide substrates
Format: biochemical
Settings: strain ATCC 25845; β-naphthylamine liberated after 60 minutes, 37° C.
Peptide text beside a SMILES is read from it. * marks the point of attachment. βNA = c1ccc2cc(N*)ccc2c1
# Aminopeptidase activity listing for each entry below
parameter: Aminopeptidase activity (nmol)

Cl.N=C(N)NCCC[C@H](NC(=O)CNC(=O)CNC(=O)OCc1ccccc1)C(=O)Nc1ccc2ccccc2c1 :: 0
CC(C)C[C@H](N)C(=O)NCC(=O)O [Leu-Gly, Leucyl-glycine] (H-Leu-Gly-OH) :: 53
CC(C)C[C@H](NC(=O)[C@@H]1CCCN1C(=O)CN)C(=O)Nc1ccc2ccccc2c1 [Gly-Pro-Leu] (H-Gly-Pro-Leu-βNA) :: 2
NC(=O)[C@@H](N)CCC(=O)O :: 1
N=C(N)NCCC[C@H](NC(=O)[C@@H](N)CCCNC(=N)N)C(=O)O [Arg-Arg, Arginyl-arginine] (H-Arg-Arg-OH) :: 24
N=C(N)NCCC[C@H](NC(=O)CN)C(=O)O [Gly-Arg, Glycyl-arginine] (H-Gly-Arg-OH) :: 4
C[C@H](N)C(=O)N[C@@H](C)C(=O)N[C@@H](Cc1ccccc1)C(=O)Nc1ccc2ccccc2c1 [Ala-Ala-Phe] (H-Ala-Ala-Phe-βNA) :: 1
CSCCC(N)C(=O)Nc1ccc2ccccc2c1 (racemic) :: 1
